# System: CAKI-1 renal
# procedure-text: NCI tumour cell line growth inhibition, 48 h; in the data active = GI50 below about 0.43 µM; inactive = the rest
Labels: 1 (yes) for active, 0 (no) for inactive

• Cn1cc(-c2cc3ncnc(Nc4ccc(NC(=O)Nc5cc(C(C)(C)C)on5)cc4)c3s2)cn1 = 1 (yes)
• Cc1cn(-c2cc(NC(=O)c3cncc(C#Cc4cnc5ccc(OCCCS(C)(=O)=O)nn45)c3)cc(C(F)(F)F)c2)cn1 = 0 (no)
• COc1cc2c3c(n(CCCNC4CCCC4)c(=O)c2cc1OC)-c1cc2c(cc1C3=O)OCO2 = 0 (no)
• NC(N)=Nc1ccc(Oc2cccc(Nc3ccc(Cl)cc3)c2)cn1 = 0 (no)
• CC1OC(O[C@@H]2C(O)C(CO)OC(O[C@H]3COC(O[C@H]4CC[C@]5(C)[C@H]6CC[C@]78OC[C@@]9(CC[C@](C)(C=O)C[C@H]97)[C@H](O)C[C@@]8(C)[C@]6(C)CC[C@H]5C4(C)C)[C@@H](OC4OC(CO)[C@@H](O)[C@@H](O)[C@@H]4O)[C@@H]3O)[C@H]2OC2OC[C@@H](O)[C@@H](O)[C@@H]2O)[C@@H](O)[C@@H](O)[C@H]1O (stereo not given in full) = 0 (no)

---

# Test system: CCRF-CEM leukemia
# procedure-text: NCI tumour cell line growth inhibition, 48 h; in the data active means GI50 below about 0.43 µM; inactive means the rest
Outcome codes: true = active, false = inactive

- NC(N)=Nc1ccc(Oc2cccc(Nc3ccc(Cl)cc3)c2)cn1: false
- Cn1cc(-c2cc3ncnc(Nc4ccc(NC(=O)Nc5cc(C(C)(C)C)on5)cc4)c3s2)cn1: true
- Cc1cn(-c2cc(NC(=O)c3cncc(C#Cc4cnc5ccc(OCCCS(C)(=O)=O)nn45)c3)cc(C(F)(F)F)c2)cn1: true
- CC1OC(O[C@@H]2C(O)C(CO)OC(O[C@H]3COC(O[C@H]4CC[C@]5(C)[C@H]6CC[C@]78OC[C@@]9(CC[C@](C)(C=O)C[C@H]97)[C@H](O)C[C@@]8(C)[C@]6(C)CC[C@H]5C4(C)C)[C@@H](OC4OC(CO)[C@@H](O)[C@@H](O)[C@@H]4O)[C@@H]3O)[C@H]2OC2OC[C@@H](O)[C@@H](O)[C@@H]2O)[C@@H](O)[C@@H](O)[C@H]1O (some centres undefined): false

---

# Tested on: DU-145 prostate
# procedure-text: NCI tumour cell line growth inhibition, 48 h
quantity-name: TGI (µM)

- CC1OC(O[C@@H]2C(O)C(CO)OC(O[C@H]3COC(O[C@H]4CC[C@]5(C)[C@H]6CC[C@]78OC[C@@]9(CC[C@](C)(C=O)C[C@H]97)[C@H](O)C[C@@]8(C)[C@]6(C)CC[C@H]5C4(C)C)[C@@H](OC4OC(CO)[C@@H](O)[C@@H](O)[C@@H]4O)[C@@H]3O)[C@H]2OC2OC[C@@H](O)[C@@H](O)[C@@H]2O)[C@@H](O)[C@@H](O)[C@H]1O (some centres undefined): 3.71
- COc1cc2c3c(n(CCCNC4CCCC4)c(=O)c2cc1OC)-c1cc2c(cc1C3=O)OCO2: 2.82
